Hello, the source for this data is patent US20230212549A1, in case you need it.

# assay-details: in vivo
# test-settings: female, athymic nude, mouse, tumor, iv
parameter: tissue uptake at 1 h (%ID/g)
Response body: numeric value in %ID/g, unit text excluded.

compound | units-text | tissue uptake at 1 h
CCCCNC(=O)N[C@H]1CSCc2cc(CSCCNC(=O)CN3CCN(CC(=O)O)CCN(CC(=O)O)CC3)cc(c2)CSCC(C(=O)O)NC(=O)[C@H](Cc2ccccc2)NC(=O)[C@H](CCC(N)=O)NC(=O)[C@H]([C@@H](C)O)NC(=O)[C@@H]2CCCN2C(=O)[C@@H]2CCCN2C1=O (stereo partly drawn) [3BP-5210] | %ID/g | 8.9

The reported value for CCCC[C@H](NC(=O)CCC(=O)NCCCOCCOCCOCCCNC(=O)CCC(C(=O)O)N1CCN(CC(=O)O)CCN(CC(=O)O)CC1)C(=O)N[C@H]1CSCc2cccc(c2)CSCC(C(=O)O)NC(=O)[C@H](Cc2ccccc2)NC(=O)[C@H](CCC(N)=O)NC(=O)[C@H]([C@@H](C)O)NC(=O)[C@@H]2CCCN2C(=O)[C@@H]2CCCN2C1=O (stereo partly drawn) [3BP-4714] in terms of tissue uptake at 1 h is 5.44

tissue uptake at 1 h reported for this compound CCCC[C@H](NC(=O)CCC(=O)NCCCOCCOCCOCCCNC(=O)CN1CCN(CC(=O)O)CCN(CC(=O)O)CC1)C(=O)N[C@H]1CSCc2cccc(c2)CSCC(C(=O)O)NC(=O)[C@H](Cc2ccccc2)NC(=O)[C@H](CCC(N)=O)NC(=O)[C@H]([C@@H](C)O)NC(=O)[C@@H]2CCCN2C(=O)[C@@H]2CCCN2C1=O (stereo partly drawn) [3BP-5201] : 6.3

###

# assay-details: in vivo
# test-settings: swiss nude, mouse, tumor, iv
Numbered stars: 1 amine (or outer) side, 2 acyl side, 3 side chain; on linkers, the order of the positions; unused ones are H or OH. Bridge positions count the residues as written; N and C are the ends. Square brackets hold non-standard residues; d marks the D form. Peptide text beside a SMILES is read from it. * marks the point of attachment. X6 = NCCNCC(CNCCN)C(=O)NCCOCCOCCOCCOCCOCCOCCC(=O)NCCCOCCOCCOCCCN*; mXylylene = c1cc(C[*:1])cc(C[*:2])c1; Suc = O=C(CCC(=O)[*:2])[*:1]; Nle = CCCC[C@H](N)C(=O)O
Readings of tissue uptake at 6 h for the listed molecules

Here's what some known entries look like.
molecule | tissue uptake at 6 h
CCCC[C@H](NC(=O)CCC(=O)NCCCOCCOCCOCCCNC(=O)CN1CCN(C(=O)C(CNCCN)CNCCN)CC1)C(=O)N[C@H]1CSCc2cncc(c2)CSCC(C(=O)O)NC(=O)[C@H](Cc2ccccc2)NC(=O)[C@H](CCC(N)=O)NC(=O)[C@H]([C@@H](C)O)NC(=O)[C@@H]2CCCN2C(=O)[C@@H]2CCCN2C1=O (stereo partly shown) | 1.74 %ID/g
CCCCNC(=O)N[C@H]1CSCc2cc(CSCCNC(=O)C(CNCCN)CNCCN)cc(c2)CSC[C@@H](C(=O)O)NC(=O)[C@H](Cc2ccccc2)NC(=O)[C@H](CCC(N)=O)NC(=O)[C@H]([C@@H](C)O)NC(=O)[C@@H]2CCCN2C(=O)[C@@H]2CCCN2C1=O | 7.68 %ID/g
CCCC[C@H](NC(=O)CCC(=O)NCCCOCCOCCOCCCNC(=O)CCOCCOCCOCCOCCOCCOCCNC(=O)C(CNCCN)CNCCN)C(=O)N[C@H]1CSCc2cccc(c2)CSC[C@@H](C(=O)O)NC(=O)[C@H](Cc2ccccc2)NC(=O)[C@H](CCC(=O)O)NC(=O)[C@H]([C@@H](C)O)NC(=O)[C@@H]2CCCN2C(=O)[C@@H]2CCCN2C1=O [3BP-4780] ({X6-Suc}-[Nle]CPPTEFC-OH; linker 2-8 via mXylylene) | 7.92 %ID/g

Alright, here's another molecule for you.
Given item CCCC[C@H](NC(=O)CCOCCOCCOCCOCCOCCOCCNC(=O)C(CNCCN)CNCCN)C(=O)N[C@H]1CSCc2cccc(c2)CSCC(C(=O)O)NC(=O)[C@H](Cc2ccccc2)NC(=O)[C@H](CCC(N)=O)NC(=O)[C@H]([C@@H](C)O)NC(=O)[C@@H]2CCCN2C(=O)[C@@H]2CCCN2C1=O (stereo partly shown) , the value recorded as its tissue uptake at 6 h is 4.59 %ID/g
